- Test Target: SARS-CoV-2 Papain-like (PLpro) protease (Severe acute respiratory syndrome coronavirus 2)
- Assay: SARS-CoV-2 Papain-like (PLpro) protease biochemical enzyme inhibition assay (ubiquitin-fluorophore substrate, Ub-R110)
- Condition Parameters: Ub-R110 substrate; run in duplicate; read-out: PLpro IC50
Field: IC50. Provide a value for each of the compounds that follow.

// solved cases for IC50 follow
input: // Input: `COC(=O)/C=C/CNC(=O)C(=O)NCc1ccccc1C(=O)N[C@H](C)c1cc(-c2cnn(C(F)F)c2)cc(C(F)(F)F)c1` . Output its IC50 only.
output: < 100 nM

input: // Input: `Cc1cc(C)nc(C#CCNC(=O)C(=O)NCc2ccccc2C(=O)NC2(c3ccc4ccccc4c3)CC2)n1` . Output its IC50 only.
output: < 100 nM

input: // Input: `O=C(NC/C=C/c1nccs1)C(=O)NCc1ccccc1C(=O)NC1(c2ccc3ccccc3c2)CC1` . Output its IC50 only.
output: 100 to 1000 nM

input: // Input: `N#CN1CC(CNC(=O)C(=O)NCc2ccccc2C(=O)NC2(c3ccc4ccccc4c3)CC2)C1` . Output its IC50 only.
output: 100 to 1000 nM

input: // Input: `N#CCNC(=O)C(=O)NCc1ccccc1C(=O)NC1(c2cc(-c3cnn(C4CC4)c3)cc3ncccc23)CC1` . Output its IC50 only.
output: < 100 nM

input: // Input: `CN1CCC(n2cc(-c3cc(F)cc(C4(NC(=O)c5ccccc5CNC(=O)C(=O)NCC#Cc5nccs5)CC4)c3)cn2)CC1` . Output its IC50 only.
output: < 100 nM

Provide IC50 values for the following items, in order.
1. O=C(NCc1ccccc1C(=O)NC1(c2ccc(F)c3ccccc23)CC1)C(=O)N[C@@H]1CNC1=O
2. O=C(NCC#Cc1ncccc1C(F)(F)F)C(=O)NCc1ccccc1C(=O)NC1(c2ccc3ccccc3c2)CC1
3. C[C@@H](NC(=O)c1ccccc1CNC(=O)C(=O)NCC#Cc1nccs1)c1cc(F)cc(-c2cnn(C(F)F)c2)c1
4. CC(C)(O)/C=C/c1cc(C2(NC(=O)c3ccccc3CNC(=O)C(=O)NCC#N)CC2)c2ccccc2c1
5. CC(C)[C@@H](C#Cc1ccccn1)NC(=O)C(=O)NCc1ccccc1C(=O)NC1(c2ccc3ccccc3c2)CC1
6. COC(=O)/C=C/CCNC(=O)C(=O)NC(C)c1ccccc1C(=O)N[C@H](C)c1cccc2ccccc12 (stereo partly shown)
7. COc1ccc(-c2cc(C3(NC(=O)c4ccccc4CNC(=O)C(=O)NCC#N)CC3)c3ccccc3c2)s1

output:
> 10000 nM
< 100 nM
< 100 nM
< 100 nM
> 10000 nM
> 10000 nM
< 100 nM

Provide IC50 values for the following items, in order.
1. C#C[C@@H](NC(=O)C(=O)NCc1ccccc1C(=O)NC1(c2ccc3nn(C)cc3c2)CC1)C(C)C
2. C#CCNC(=O)C(=O)NCc1ccccc1C(=O)NC1(c2cccc(-c3cnn(C4CC4)c3)c2Cl)CC1
3. C#CCNC(=O)C(=O)NCc1ccccc1C(=O)NC1(c2cc(Cl)cc(-c3cnc(C4CC4)nc3)c2)CC1
4. COc1cc(C#N)ccc1C#CCNC(=O)C(=O)NCc1ccccc1C(=O)NC1(c2ccc3ccccc3c2)CC1
5. O=C(NCC#Cc1nccs1)C(=O)NCc1ccccc1C(=O)NC1(c2cc(Cl)cc(-c3cnc(C4CC4)nc3)c2)CC1
6. N#CCNC(=O)C(=O)NCc1ccccc1C(=O)NC1(c2cccc(-c3ccc(F)cc3)c2F)CC1
7. N#CN1CC[C@@H](CNC(=O)C(=O)NCc2ccccc2C(=O)NC2(c3cccc4ccccc34)CC2)C1
8. O=C(NCC#Cc1nccs1)C(=O)NCc1ccccc1C(=O)NC1(c2cccc3cnccc23)CC1

output:
1: > 10000 nM; 2: < 100 nM; 3: < 100 nM; 4: < 100 nM; 5: < 100 nM; 6: < 100 nM; 7: < 100 nM; 8: < 100 nM

Provide IC50 values for the following items, in order.
1. O=C(NCC#Cc1nccs1)C(=O)NCc1ccccc1C(=O)NC1(c2ccc3c4c(cccc24)CC3)CC1
2. C#CCNC(=O)C(=O)NCc1ccccc1C(=O)NC1(c2cc(OC)cc(-c3cnn(C4CC4)c3)c2)CC1
3. N#CN1CC[C@@H]1CNC(=O)C(=O)NCc1ccccc1C(=O)NC1(c2cccc3ccccc23)CC1
4. COC(=O)/C=C/CNC(=O)C(=O)NCc1ccccc1C(=O)N[C@H](C)c1cc(-c2cnn(C3CC3)c2)cc(C(F)(F)F)c1

output:
< 100 nM
< 100 nM
100 to 1000 nM
< 100 nM
